B1: Transitional endoplasmic reticulum ATPase, residues 26 to 106; numbered along this chain, P55072 (parent)
chain: LIVDEAINEDNSVVSLSQPKMDELQLFRGDTVLLKGKKRREAVCIVLSDDTCSDEKIRMNRVVRNNLRVRLGDVISIQPCP

Variants of: B1
assay: abundance fitness (aPCA) (normalised: wild type 0, dead -1); higher = more abundant; growth selection in yeast, the domain comes from the species named
reported_conditions: Homo sapiens
Each entry below lists one item and its recorded abundance fitness value.
Please give the numeric answer without any surrounding text.

- V74M: -0.107
- D22T: -0.037
- V3I: -0.037

Give the reported abundance fitness for this variant. S12E
0.039

Give the reported abundance fitness for this variant. D49Q
-0.307

Give the reported abundance fitness for this variant. V46E
-0.649

Give the reported abundance fitness for this variant. D73I
-0.655

Give the reported abundance fitness for this variant. V14C
-0.11

Give the reported abundance fitness for this variant. V62G
0.025

Give the reported abundance fitness for this variant. L1M
-0.046

Give the reported abundance fitness for this variant. C44K
0.057

Give the reported abundance fitness for this variant. R28M
0.011

Give the reported abundance fitness for this variant. D10T
-0.01

Give the reported abundance fitness for this variant. P81I
-0.174

Give the reported abundance fitness for this variant. S15E
0.008

Give the reported abundance fitness for this variant. N60M
-0.552

Give the reported abundance fitness for this variant. N11L
-0.007

Give the reported abundance fitness for this variant. P19V
0.047

Give the reported abundance fitness for this variant. S53V
-0.022

Give the reported abundance fitness for this variant. V74N
0.034

Give the reported abundance fitness for this variant. V32T
-0.827

Give the reported abundance fitness for this variant. D50G
0.031

Give the reported abundance fitness for this variant. D22V
-0.049

Give the reported abundance fitness for this variant. N60A
-0.009

Give the reported abundance fitness for this variant. L24Q
-0.516

Give the reported abundance fitness for this variant. M59C
-0.066
